Each recorded value in this set is attributed to the supplement of paper PMC11451515.

tested on: SEM cells; assay: cell viability relative to DMSO control; higher = less cytotoxic; details: RPMI 5 mM glucose + 10% dialyzed FBS; 48 h; 0.0632 µM
Measured Attribute: cell viability (%)
One number for each entry, in %.

Which cell viability value is on record for Nc1ccc([S+](=O)([O-])Nc2ncccn2)cc1 ?
122

Which cell viability value is on record for CCOC(=O)N[C@@H]1CC[C@@H]2[C@@H](C1)C[C@H]1C(=O)O[C@H](C)[C@H]1[C@H]2/C=C/c1ccc(-c2cccc(F)c2)cn1 ?
117

Which cell viability value is on record for NC\1=N\C(=O)N(\C=C1F)[C@H]2C[C@H](O)[C@@H](CO)O2 ?
38.7

Which cell viability value is on record for CCOCC(O)COc1ccc(NC(=O)CC[S+](C)C)cc1 (stereo not drawn) ?
91.2

Which cell viability value is on record for O=[S+]([O-])(NCCNC/C=C/c1ccc(Br)cc1)c1cccc2cnccc12 ?
91.6

Which cell viability value is on record for Cc1ccc(/C=N/NC(=O)c2ccccc2Oc2ccccc2)o1 ?
91.8

// input: 3 compounds below; output: cell viability for each
1. COc1ccc(C2(C#N)CCC(C(=O)O)CC2)cc1OC1CCCC1 (stereo not drawn)
2. OCCN(CCO)c1nc(N2CCCCC2)c2nc(N(CCO)CCO)nc(N3CCCCC3)c2n1
3. COC(=O)[C@H](c1ccccc1Cl)N1CCc2sccc2C1

1. 84.3
2. 121
3. 110

* * *

Exercise: for every item that follows, state its recorded cell viability.
tested on: NOMO1; assay: cell viability relative to DMSO control; higher = less cytotoxic; details: RPMI 5 mM glucose + 10% dialyzed FBS; 48 h; 0.0632 µM
Numbers only, in %.

Worked cases, answers included:
Which cell viability value is on record for CCCCCN(CCC12CC3CC(CC(C3)C1)C2)C(=O)NCCCc1ccncc1 ?
116

Which cell viability value is on record for OC[C@H]1OC(OC2=CC3=C(C(=C2)O)C(=O)\C(=C/O3)C4=CC=C(O)C=C4)[C@H](O)[C@@H](O)[C@@H]1O (stereo not given in full) ?
80.8

Which cell viability value is on record for COc1cc2ncn(-c3cc(OCc4ccccc4C(F)(F)F)c(C(N)=O)s3)c2cc1OC ?
112

Which cell viability value is on record for OCCN(CCO)c1nc(N2CCCCC2)c2nc(N(CCO)CCO)nc(N3CCCCC3)c2n1 ?
113

Which cell viability value is on record for C1COC(NC(C2CC2)C2CC2)=N1 ?
86.4

// input: 5 compounds below; output: cell viability for each
1. NNc1nncc2ccccc12
2. Oc1ccc2ccccc2c1SSc1c(O)ccc2ccccc12
3. Cc1ccc(-c2cc(C(F)(F)F)nn2-c2ccc([S+](N)(=O)[O-])cc2)cc1
4. Cc1cnc(Nc2ccc(CN3CCOCC3)cc2)nc1Nc1cccc([S+](=O)([O-])NC(C)(C)C)c1
5. CC(S)C(=O)NCC(=O)O (stereo not given)

1: 137; 2: 105; 3: 107; 4: 84.4; 5: 107

* * *

tested on: P12-Ichikawa; assay: AUC of viability dose-response curve (% viability x log10 dose units); higher = less sensitive; settings: HPLM + 10% dialyzed FBS; 48 h
Measured Attribute: AUC of viability dose-response curve
Give bare numbers.

Which AUC of viability dose-response curve value is on record for Cc1cnc(Nc2ccc(N3CCN(C)CC3)cc2)nc1Nc1cccc([S+](=O)([O-])NC(C)(C)C)c1 ?
400

// input: 3 compounds below; output: AUC of viability dose-response curve for each
1. C[C@H](Cc1ccc(O)c(O)c1)[C@@H](C)Cc1ccc(O)c(O)c1
2. COc1cc2c(Nc3ccc(Cl)c(Cl)c3F)ncnc2cc1OC[C@@H]1C[C@@H]2CN(C)C[C@@H]2C1
3. O=C(NCC1CCOCC1)c1cnc(Nc2ccc(Cl)cc2Cl)nc1C(F)(F)F

1. 443
2. 444
3. 450
